Measured Plant response rating, Kochia of individual entries
System: kochia (Kochia scoparia)
Experiment: Test D controlled growth environment herbicide test, pre- and postemergence
Format: in vivo
Conditions: Preemergence, 62 g ai/ha; scale 0 to 100 (0 no effect, 100 complete control)
Recorded Metric: Plant response rating, Kochia

{"Structure Smiles": "Cc1ccc2sc(Br)c(-c3c(O)c(C)nn(C)c3=O)c2c1", "Result": 55}
{"Structure Smiles": "Cc1nn(C)c(=O)c(-c2ccc(F)c3ccccc23)c1O", "Result": 75}
{"Structure Smiles": "Cc1nn(C)c(=O)c(-c2cccc3ccccc23)c1O", "Result": 40}
{"Structure Smiles": "Cc1nn(C)c(=O)c(-c2c(C)sc3ccc(Br)cc23)c1O", "Result": 35}
{"Structure Smiles": "CCc1sc2c(C)cc(C)cc2c1-c1c(O)c(C)nn(C)c1=O", "Result": 10}
{"Structure Smiles": "CCc1sc2ccc(C)cc2c1-c1c(O)c(C)nn(C)c1=O", "Result": 10}
